All values here come from ChEMBL document CHEMBL1127308.

# EXPERIMENTAL TARGET: Neutrophil elastase (Homo sapiens, UniProt P08246)
# Sequence (P08246 whole entry): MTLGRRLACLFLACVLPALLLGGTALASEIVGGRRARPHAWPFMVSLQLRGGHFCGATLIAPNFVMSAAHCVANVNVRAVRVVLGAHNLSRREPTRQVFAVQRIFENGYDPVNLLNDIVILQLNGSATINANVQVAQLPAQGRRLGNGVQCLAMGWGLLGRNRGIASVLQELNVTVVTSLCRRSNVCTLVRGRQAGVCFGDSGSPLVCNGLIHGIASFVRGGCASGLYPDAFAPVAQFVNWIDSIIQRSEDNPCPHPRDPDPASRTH
# TEST PROTOCOL: In vitro inhibitory activity against human neutrophil elastase
pKi: −log10 of the molar value.
OBSERVABLE: pKi

> print(dat)
                            compound.string  endpoint.result
1  CC(C)[C@H](NC(=O)N(C)C)C(=O)N1CCC[C@H]1C(=O)N[C@H](C(=O)C(F)(F)C(F)(F)F)C(C)C             6.58

* * *

# TEST PROTOCOL: Half life determined from epimerization data at 37 degree C in human blood serum 3
# Type: ADME, organism-based, Plasma
OBSERVABLE: half-life (min)

> print(dat)
                                   molecule  readout.units  endpoint.result
1  CC(C)C(NC(=O)[C@@H]1CCCN1C(=O)[C@@H](NC(=O)c1ccc(C(=O)N2CCOCC2)cc1)C(C)C)C(=O)C(F)(F)C(F)(F)F (stereo partly specified)            min               30
